Tested on: IgE (full length human IgE, h-IgE) (Homo sapiens), P01854-1
Sequence (P01854 other isoform, or with tags, fused parts or gaps): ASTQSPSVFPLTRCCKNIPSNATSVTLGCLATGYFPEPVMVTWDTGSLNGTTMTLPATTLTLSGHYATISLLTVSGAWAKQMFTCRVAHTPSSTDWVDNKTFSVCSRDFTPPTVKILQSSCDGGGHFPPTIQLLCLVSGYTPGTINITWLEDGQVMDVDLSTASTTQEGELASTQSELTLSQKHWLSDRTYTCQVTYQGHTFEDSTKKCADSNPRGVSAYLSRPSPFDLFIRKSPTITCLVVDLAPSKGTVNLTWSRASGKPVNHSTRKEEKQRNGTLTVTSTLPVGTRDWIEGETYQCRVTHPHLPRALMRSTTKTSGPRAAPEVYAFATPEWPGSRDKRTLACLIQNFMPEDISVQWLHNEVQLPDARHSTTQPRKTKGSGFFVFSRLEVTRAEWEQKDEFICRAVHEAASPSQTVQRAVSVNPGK
Test: filter
Details: as ARC1666 (2'-OMe/2'-deoxy/deoxyinosine, 3' 3T cap) with PS between 8-9, 15-16, 16-17, 17-18, 18-19, 19-20, 20-21 [2'-OMe at 1-5, 7, 10-15, 17, 22, 23; 2'-deoxy at 6, 8, 9, 16, 18, 19, 20, 21; deoxyinosine at 16, 18, 20 (written as G); PS between 8-9, 15-16, 16-17, 17-18, 18-19, 19-20, 20-21; T24 = 3' inverted dT]; dot-blot, DPBS with Mg and Ca, 0.1 mg/mL BSA, room temperature, 30 min
pKd: −log10 of the molar value.
measurement_kind: pKd

sequence_chain="AGCCUGGGGACCCAUGGGGGGCU [ARC3901]" measurement_kind=pKd quantitative_result=9.89

====

Tested on: IgE (full length human IgE, h-IgE) (Homo sapiens), P01854-1
Assay: filter
Details: as ARC1666 (2'-OMe/2'-deoxy/deoxyinosine, 3' 3T cap) with PS between 8-9, 15-16, 16-17, 17-18, 18-19, 20-21 [2'-OMe at 1-5, 7, 10-15, 17, 22, 23; 2'-deoxy at 6, 8, 9, 16, 18, 19, 20, 21; deoxyinosine at 16, 18, 20 (written as G); PS between 8-9, 15-16, 16-17, 17-18, 18-19, 20-21; T24 = 3' inverted dT]; dot-blot, DPBS with Mg and Ca, 0.1 mg/mL BSA, room temperature, 30 min
measurement_kind: Kd (nM)

sequence_chain="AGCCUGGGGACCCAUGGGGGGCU [ARC2982]" measurement_kind=Kd quantitative_result=0.03

====

System: IgE (full length human IgE, h-IgE) (Homo sapiens), P01854-1
Experiment: filter
Settings: as ARC1666 (2'-OMe/2'-deoxy/deoxyinosine, 3' 3T cap) with PS between 8-9, 15-16, 16-17, 18-19, 19-20, 20-21 [2'-OMe at 1-5, 7, 10-15, 17, 22, 23; 2'-deoxy at 6, 8, 9, 16, 18, 19, 20, 21; deoxyinosine at 16, 18, 20 (written as G); PS between 8-9, 15-16, 16-17, 18-19, 19-20, 20-21; T24 = 3' inverted dT]; dot-blot, DPBS with Mg and Ca, 0.1 mg/mL BSA, room temperature, 30 min
measurement_kind: Kd

sequence_chain="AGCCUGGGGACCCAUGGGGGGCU [ARC2983]" result="0.02 nM"
